- condition info: in vivo

smiles repr | half-life / h
CCCN[C@H]1CCc2nc(N)sc2C1 | 12.5

###

- condition info: in vivo
outcome measure: bioavailability

smiles repr | reported value
CCCN[C@H]1CCc2nc(N)sc2C1 | > 80%
